Source listed as patent US20130323237A1.

target: T1, recombinant human TSLP (R&D Systems) (human, UniProt Q969D9 29-159); assay: BioVeris electrochemiluminescence screening, Fab in E. coli lysate on biotinylated TSLP coupled to streptavidin beads
T1 construct: also called hTSLP; human thymic stromal lymphopoietin
reportedEndpoint: binding result

binder="MOR05023 Fab (Fab, V domains shown) VH: QVQLVQSGAEVKKPGSSVKVSCKASGGTFSSYAISWVRQAPGQGLEWMGNIYPIFGYANYAQKFQGRVTITADESTSTAYMELSSLRSEDTAVYYCARYGQYGQHFSHGGMDVWGQGTLVTVSS VL: DIQMTQSPSSLSASVGDRVTITCRASQDISISLTWYQQKPGKAPKLLIYGAFSLQSGVPSRFSGSGSGTDFTLTISSLQPEDFATYYCQQFYFHSPTFGQGTKVEIKR" readoutvalue=binds
binder="MOR05009 Fab (Fab, V domains shown) VH: QVQLVQSGAEVKKPGSSVKVSCKASGGTFSSYAISWVRQAPGQGLEWMGHISPEFGFTNYAQKFQGRVTITADESTSTAYMELSSLRSEDTAVYYCARSGMFYSILFDYWGQGTLVTVSS VL: DIQMTQSPSSLSASVGDRVTITCRASQDIYNYLNWYQQKPGKAPKLLIYGASSLQSGVPSRFSGSGSGTDFTLTISSLQPEDFAVYYCQQQNDYPLTFGQGTKVEIKR" readoutvalue=binds
